# Test Details: Cytotoxicity against in human MT4 cells after 5 days by XTT assay
# Assay type: cell-based
# Settings: time 5 day
The entries below are paired with their reported CC50 at 120 h.
Give the number; µM is assumed, so skip it.

Compound Structure: CC(C)OC(=O)[C@H](C)N[P@@](=O)(CO[C@H](C)Cn1cnc2c(N)ncnc21)Oc1ccc(C[C@H](NC(=O)CCc2ccccc2)C(=O)OC2CCCC2)cc1
CC50 at 120 h, µM: 11

Specify reported CC50 at 120 h for the molecule shown: CCC(CC)COC(=O)[C@H](Cc1ccc(O[P@@](=O)(CO[C@H](C)Cn2cnc3c(N)ncnc32)N[C@@H](C)C(=O)OC(C)C)cc1)NC(=O)OCc1ccccc1 38
